Assayed Target: pY1068 EGFR WT (Homo sapiens)
Construct: A431 (harboring EGFR wildtype) was purchased from ATCC
Sequence (P00533 25-1210): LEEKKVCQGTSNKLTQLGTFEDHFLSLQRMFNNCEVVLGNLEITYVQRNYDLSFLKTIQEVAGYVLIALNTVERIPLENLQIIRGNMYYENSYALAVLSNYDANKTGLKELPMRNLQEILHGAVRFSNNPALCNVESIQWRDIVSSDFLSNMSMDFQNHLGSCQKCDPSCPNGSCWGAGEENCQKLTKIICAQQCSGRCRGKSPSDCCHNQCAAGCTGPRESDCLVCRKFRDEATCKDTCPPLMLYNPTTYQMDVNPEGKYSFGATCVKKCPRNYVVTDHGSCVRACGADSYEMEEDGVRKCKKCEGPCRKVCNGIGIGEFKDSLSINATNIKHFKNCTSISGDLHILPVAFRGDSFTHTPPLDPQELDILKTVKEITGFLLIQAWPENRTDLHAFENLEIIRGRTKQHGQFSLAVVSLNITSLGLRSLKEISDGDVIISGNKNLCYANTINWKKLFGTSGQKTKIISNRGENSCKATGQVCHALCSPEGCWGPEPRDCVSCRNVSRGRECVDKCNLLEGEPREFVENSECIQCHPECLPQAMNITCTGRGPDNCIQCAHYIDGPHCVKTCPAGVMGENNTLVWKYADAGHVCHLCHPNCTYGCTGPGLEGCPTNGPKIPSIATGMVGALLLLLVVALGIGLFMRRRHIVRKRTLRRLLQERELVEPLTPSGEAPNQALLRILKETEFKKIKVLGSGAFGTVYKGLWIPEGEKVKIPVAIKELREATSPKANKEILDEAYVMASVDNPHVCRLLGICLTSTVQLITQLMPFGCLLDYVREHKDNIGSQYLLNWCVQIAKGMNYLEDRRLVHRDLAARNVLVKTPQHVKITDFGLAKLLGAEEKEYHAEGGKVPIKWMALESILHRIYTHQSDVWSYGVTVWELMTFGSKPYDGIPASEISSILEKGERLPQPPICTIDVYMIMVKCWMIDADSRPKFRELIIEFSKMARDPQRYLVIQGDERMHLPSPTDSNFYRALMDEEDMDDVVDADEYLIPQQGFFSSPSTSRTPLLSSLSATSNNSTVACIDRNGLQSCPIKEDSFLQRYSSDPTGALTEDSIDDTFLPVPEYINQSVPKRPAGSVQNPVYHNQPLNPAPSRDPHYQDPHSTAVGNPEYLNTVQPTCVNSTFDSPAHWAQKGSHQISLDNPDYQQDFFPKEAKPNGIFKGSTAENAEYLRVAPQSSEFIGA
Test Description: Phospho-EGFR (pY1068) inhibition HTRF, A431
Measurement Context: A431 (wild-type), 6 hours; read-out: pEGFR IC50
Items are presented alongside their recorded IC50.

Compound	IC50
Cn1nc(N2CCC(=O)NC2=O)c2ccc([C@H]3CCN(CC(=O)N4CC5(C4)CN(c4ccc(-c6cc(F)c7c(c6)C(=O)N(C(C(=O)Nc6nccs6)c6ncn8c6CCC8)C7)cc4)C5)CC3(F)F)cc21 (some centres unmarked) [Compound 2]	> 10 µM

Turning now to a further record.
Data point: O=C1CC[C@H](Nc2ccc(N3CCC(O)(CC(=O)N4CC5(C4)CN(c4ccc(-c6cc(F)c7c(c6)C(=O)N(C(C(=O)Nc6nccs6)c6ncn8c6CCC8)C7)cc4)C5)CC3)c(F)c2)C(=O)N1 (some centres unmarked) [Compound 1] ; IC50 = > 10 µM
